experimentalSystem: PI3-kinase p110-delta/p85-alpha (Homo sapiens)
Sequence (P27986 whole entry): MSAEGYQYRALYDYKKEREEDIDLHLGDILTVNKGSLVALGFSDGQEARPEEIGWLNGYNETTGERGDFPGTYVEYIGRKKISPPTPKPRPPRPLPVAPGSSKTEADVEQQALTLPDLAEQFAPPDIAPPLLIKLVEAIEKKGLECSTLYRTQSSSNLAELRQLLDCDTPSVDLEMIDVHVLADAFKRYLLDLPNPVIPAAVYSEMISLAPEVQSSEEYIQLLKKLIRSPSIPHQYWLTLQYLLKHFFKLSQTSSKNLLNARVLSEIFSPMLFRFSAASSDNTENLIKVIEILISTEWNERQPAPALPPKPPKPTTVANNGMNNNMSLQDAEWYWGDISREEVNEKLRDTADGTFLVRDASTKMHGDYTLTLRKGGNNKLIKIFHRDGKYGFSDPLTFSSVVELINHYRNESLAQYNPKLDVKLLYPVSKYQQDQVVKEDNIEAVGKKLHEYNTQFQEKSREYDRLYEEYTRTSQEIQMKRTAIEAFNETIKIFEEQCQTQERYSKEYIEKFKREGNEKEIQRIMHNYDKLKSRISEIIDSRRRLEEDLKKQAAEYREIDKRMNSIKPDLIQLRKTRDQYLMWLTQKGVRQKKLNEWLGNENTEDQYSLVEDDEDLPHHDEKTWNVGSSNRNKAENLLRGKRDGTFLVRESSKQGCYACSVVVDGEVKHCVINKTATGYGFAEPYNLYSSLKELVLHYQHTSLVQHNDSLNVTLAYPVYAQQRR
Sequence (O00329 whole entry): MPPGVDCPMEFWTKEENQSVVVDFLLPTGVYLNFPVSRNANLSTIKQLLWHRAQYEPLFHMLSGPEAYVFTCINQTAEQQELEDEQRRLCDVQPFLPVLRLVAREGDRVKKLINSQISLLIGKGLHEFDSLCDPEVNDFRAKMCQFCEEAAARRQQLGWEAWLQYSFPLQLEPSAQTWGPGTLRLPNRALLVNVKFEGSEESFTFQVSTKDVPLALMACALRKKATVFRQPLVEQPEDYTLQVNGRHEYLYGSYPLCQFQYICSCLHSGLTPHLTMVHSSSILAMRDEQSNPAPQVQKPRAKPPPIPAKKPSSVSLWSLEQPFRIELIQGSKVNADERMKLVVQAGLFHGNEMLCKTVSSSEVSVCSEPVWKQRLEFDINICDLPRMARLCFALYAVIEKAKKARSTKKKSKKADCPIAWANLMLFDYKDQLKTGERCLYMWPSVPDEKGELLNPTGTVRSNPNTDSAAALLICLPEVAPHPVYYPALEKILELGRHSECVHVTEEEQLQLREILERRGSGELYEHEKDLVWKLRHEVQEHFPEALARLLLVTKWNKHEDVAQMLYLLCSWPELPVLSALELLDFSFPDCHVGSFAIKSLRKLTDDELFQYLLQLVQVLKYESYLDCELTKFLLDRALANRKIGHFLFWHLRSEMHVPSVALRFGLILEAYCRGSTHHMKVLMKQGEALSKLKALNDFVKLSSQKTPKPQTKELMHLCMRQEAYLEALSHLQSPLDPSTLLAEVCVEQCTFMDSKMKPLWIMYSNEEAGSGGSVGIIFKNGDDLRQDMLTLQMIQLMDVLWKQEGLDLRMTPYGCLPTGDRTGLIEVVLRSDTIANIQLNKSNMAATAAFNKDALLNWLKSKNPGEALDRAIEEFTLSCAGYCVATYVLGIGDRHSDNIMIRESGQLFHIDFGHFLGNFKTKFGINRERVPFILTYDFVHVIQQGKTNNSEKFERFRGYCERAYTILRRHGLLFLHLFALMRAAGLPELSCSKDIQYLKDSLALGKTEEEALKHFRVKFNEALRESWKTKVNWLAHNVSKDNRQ
testMethodNotes: Inhibition of human PI3K p110delta/p85alpha
setupConditions: read-out: Ki(app)
pKi: −log10 of the molar value.
reportedMetric: pKi

[1] CS(=O)(=O)N1CCN(Cc2nc3c(N4CCOCC4)nc(-c4cccc5[nH]ncc45)cn3c2Br)CC1
[2] COCCCNC(=O)c1cn2cc(-c3cccc4[nH]ncc34)nc(N3CCOCC3)c2n1
[3] CNC(=O)c1cn2cc(-c3cccc4[nH]ncc34)nc(N3CCOCC3)c2n1
[4] CS(=O)(=O)N1CCN(Cc2cn3c(Cl)c(-c4cccc5[nH]ncc45)nc(N4CCOCC4)c3n2)CC1
Data request: Give the descending pKi ranking for the 4 compounds listed above. Order the labels as requested and list them.
Data returned: 2, 1, 3, 4
